Origin of the recorded values: patent US20140148484A1

Biological target: human CRTH2 receptor (Homo sapiens, UniProt Q9Y5Y4)
Construct: membranes prepared in house from the purchased cell line
Sequence (Q9Y5Y4 whole entry): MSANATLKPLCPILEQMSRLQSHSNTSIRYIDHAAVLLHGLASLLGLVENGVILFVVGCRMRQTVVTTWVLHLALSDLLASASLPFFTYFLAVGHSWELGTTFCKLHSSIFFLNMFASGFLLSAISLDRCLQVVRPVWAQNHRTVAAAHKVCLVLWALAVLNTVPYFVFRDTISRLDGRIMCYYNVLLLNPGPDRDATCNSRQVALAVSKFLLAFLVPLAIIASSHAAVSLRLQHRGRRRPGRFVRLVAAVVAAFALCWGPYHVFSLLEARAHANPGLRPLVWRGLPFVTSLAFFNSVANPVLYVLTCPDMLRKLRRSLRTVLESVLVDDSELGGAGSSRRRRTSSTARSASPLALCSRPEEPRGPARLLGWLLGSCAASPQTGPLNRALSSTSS
Experiment: Human CRTH2 receptor membrane radioligand binding assay (SPA, [3H]-PGD2)
Settings: displacement of [3H]-PGD2 (1 nM) from CHO-K1-hCRTH2 cell membranes, 3 h room temperature
pKi: −log10 of the molar value.
Property Name: pKi

{"Smiles Entry": "Cc1cc(NC(=O)c2ccc3ccccc3c2)ccc1Cn1nc(C)c(CC(=O)O)c1C", "Property Name": "pKi", "Measured Value": 9.52}
{"Smiles Entry": "Cc1nn(Cc2ccc(COc3ccc(Cl)c(Cl)c3)cc2)c(C)c1CC(=O)O", "Property Name": "pKi", "Measured Value": 7.37}
{"Smiles Entry": "Cc1nn(Cc2ccc(C#Cc3ccc(C(F)(F)F)cc3)cc2)c(C)c1CC(=O)O", "Property Name": "pKi", "Measured Value": 6.90}
{"Smiles Entry": "CCc1nn(Cc2ccc(NC(=O)c3ccc(Cl)cc3C)cc2)c(CC)c1CC(=O)O", "Property Name": "pKi", "Measured Value": 8.96}
